# SYSTEM_UNDER_TEST: T1, calmodulin (Rattus norvegicus, UniProt P0DP29)
# T1 construct: made in house; host or cells: Escherichia coli BL21 (pGEX-4T-1 based plasmid)
# PROTOCOL_NOTES: Pull-down of 35S-methionine-labelled TRPM8 fragments on GST-CaM agarose-GSH beads, SDS/PAGE and autoradiography
# Format: binding
# Design: key: (+) binding was detected; (−) no binding was detected
# STATED_CONDITIONS: rat TRPM8 constructs; binding buffer with 2 mM CaCl2, 30 min room temperature

# MOLECULE, Binding (binding activity to calmodulin)
rows = [
    ("TRPM8-9/pAGA3: Rat TRPM8 fragment, residues A172-S352, 180 aa (protein) AQSKGAWILTGGTHYGLMKYIGEVVRDNTISRNSEENIVAIGIAAWGMVSNRDTLIRNCDDEGHFSAQYIMDDFMRDPLYILDNNHTHLLLVDNGCHGHPTVEAKLRNQLEKYISERTSQDSNYGGKIPIVCFAQGGGRETLKAINTSVKSKIPCVVVEGSGQIADVIASLVEVEDVLTSS", "−"),
    ("TRPM8-7/pAGA3: Rat TRPM8 fragment, residues V145-S352, 207 aa (protein) VISVTGGAKNFALKPRMRKIFSRLIYIAQSKGAWILTGGTHYGLMKYIGEVVRDNTISRNSEENIVAIGIAAWGMVSNRDTLIRNCDDEGHFSAQYIMDDFMRDPLYILDNNHTHLLLVDNGCHGHPTVEAKLRNQLEKYISERTSQDSNYGGKIPIVCFAQGGGRETLKAINTSVKSKIPCVVVEGSGQIADVIASLVEVEDVLTSS", "+"),
    ("TRPM8-8/pAGA3: Rat TRPM8 fragment, residues M219-S352, 133 aa (protein) MVSNRDTLIRNCDDEGHFSAQYIMDDFMRDPLYILDNNHTHLLLVDNGCHGHPTVEAKLRNQLEKYISERTSQDSNYGGKIPIVCFAQGGGRETLKAINTSVKSKIPCVVVEGSGQIADVIASLVEVEDVLTSS", "−"),
]
